- Test system: SK-MEL-28 melanoma
- assay_info: NCI-60 one-dose screen, 48 h
- measurement_parameters: 10 µM unless noted
This is part of a sample that, as a whole, favours compounds with a hit. Of some 83,000 tested, about 20% had one in any assay. Calls of active or inactive are those of the source. The calls were made as follows: active = growth percent below 10; inactive = the rest.
Outcome field: choose from active, inactive

molecule	test_target	discrete_label
C#COc1cccc(Nc2c(C#N)cnc3ncc(NC(=O)CCl)cc23)c1	SK-MEL-28 melanoma	inactive
Cc1csc(Nc2nc(-c3ccccn3)nc(C(Cl)(Cl)Cl)n2)n1	SK-MEL-28 melanoma	inactive

Request: GET /call?item= "CC(C)C1=NOC(=O)C1=Cc1cn(-c2ccccc2)nc1-c1ccc(F)cc1" returns the recorded outcome of this test.
Response: inactive

Request: GET /call?item= "Cn1ccc(=O)c(C(=O)Nc2nsc3ccc([N+](=O)[O-])cc23)c1" returns the recorded outcome of this test.
Response: inactive

====

Field: growth. Provide a value for each of the compounds that follow.
- Tested on: TK-10 renal
- assay_info: NCI-60 one-dose screen, 48 h (100 = growth as untreated, 0 = no growth, -100 = all killed)
- measurement_parameters: 10 µM unless noted
This is part of a sample that, as a whole, favours compounds with a hit. Of some 83,000 tested, about 20% had one in any assay. Calls of active or inactive are those of the source. Rule for the calls: active = growth percent below 10; inactive = the rest.

Consider the worked cases shown below.
compound	test_target	result
O=C(N(c1ccccc1)c1ccccc1)n1cc(I)c2nc(Cl)nc(Cl)c21	TK-10 renal	86.8% (inactive)
N#Cc1ccc(O)c(C2=NCC(c3ccccc3)O2)c1 (stereo not given)	TK-10 renal	52.2% (inactive)
CC(=O)N1N=C(c2ccc(Nc3nc(Nc4ccccc4)nc(Nc4ccccc4)n3)cc2)CC1c1cccc([N+](=O)[O-])c1 (stereo not given)	TK-10 renal	127% (inactive)

Fill in growth for each of the 2 compounds listed.
1. COc1ccc(CNc2c3ccccc3nc3ccccc23)cc1
2. COc1ccc(/C=C/C(=O)c2cc3c(N)c(C(=O)Nc4cccc5ccccc45)sc3nc2C)cc1

Response:
["49.5% (inactive)", "94.2% (inactive)"]

====

Field: growth. Provide a value for each of the compounds that follow.
- System: HOP-62 NSCLC
- assay_info: NCI-60 one-dose screen, 48 h (100 = growth as untreated, 0 = no growth, -100 = all killed)
- measurement_parameters: 10 µM unless noted
About 83,000 compounds went through this panel and 20% of them were active in at least one assay; those are over-represented in the sample as a whole.
Answers are plain numbers, in %.

Consider the worked cases shown below.
structure_string	outcome_measure	measure_unit	quantitative_result
CCCNc1nc2ccccc2c2c1S(=O)(=O)c1ccc(Cl)cc1C2=O	growth	%	9.66
C=C1C(=O)O[C@H]2[C@H]1CC/C(COC(=O)/C=C\C(=O)NCc1ccc(Cn3c(=O)sn(CCI)c3=O)cc1)=C\CC[C@@]1(C)O[C@@H]21	growth	%	130
CC(C)(Sc1cc(C(C)(C)C)c(O)c(C(C)(C)C)c1)Sc1cc(C(C)(C)C)c(OC(=O)CCCC(=O)O)c(C(C)(C)C)c1	growth	%	67

# context switch: different compound, same growth
Request: # query: growth | item "CCOC(=O)c1ccc2c(c1)nc(-c1ccccc1)n2C1CCCCC1" | system: HOP-62 NSCLC
Response: 65

====

- Tested on: MALME-3M melanoma
- assay_info: NCI-60 one-dose screen, 48 h (100 = growth as untreated, 0 = no growth, -100 = all killed)
- measurement_parameters: 10 µM unless noted
This is part of a sample that, as a whole, favours compounds with a hit. Of some 83,000 tested, about 20% had one in any assay.
Field: growth. Provide a value for each of the compounds that follow.
One number for each entry, in %.

Consider the worked cases shown below.
compound	test_target	quantitative_result
O=C(Nc1nc(-c2ccc(Cl)cc2)nc2c1sc(=S)n2-c1ccccc1)C(F)(F)F	MALME-3M melanoma	21.2
COc1ccc(Nc2nnc(-c3ccc(OC)c(OC)c3)o2)cc1	MALME-3M melanoma	106
O=C(Nc1ccc(Oc2cccc(Cl)c2)c(Cl)c1)c1cccnc1	MALME-3M melanoma	50.1
Cc1ccc2c(n1)C(=O)C(Br)=C(C1CCCC1)C2=O	MALME-3M melanoma	110
NC(=O)c1cc(I)ccc1NC(=O)/C=C/c1ccccc1	MALME-3M melanoma	42.7

Fill in growth for each of the 6 compounds listed.
1. O=C(/C=C/c1cn(-c2ccccc2)nc1-c1ccc(Cl)cc1)c1ccc(F)cc1
2. COC(=O)c1c2c(c(C)[n+]([O-])c1C)C(=O)C(NCc1cccc(OC)c1)=CC2=O
3. CCn1cc(C(=O)NNC(=S)Nc2ccc(C)cc2)c(=O)c2ccc(C)nc21
4. CC(=O)N1N=C(c2ccc(Nc3nc(Nc4ccccc4)nc(Nc4ccccc4)n3)cc2)CC1c1cccc([N+](=O)[O-])c1 (stereo not drawn)
5. Cc1cccc(/C=C/c2c(C(=O)/C=C/c3ccccc3)c(C)nc3ccccc23)c1
6. O=C1/C=C/[C@@H](O)[C@@H]2C[C@@H](O)C[C@H]2/C=C/CCC[C@H](CCc2ccccc2)O1

Response:
1. 87.5
2. -89.9
3. 103
4. 136
5. -79.3
6. -14.2

Fill in growth for each of the 7 compounds listed.
1. O=C1/C(=C\c2ccc3nccnc3c2)SC(=S)N1CCc1ccc(O)cc1
2. CC1=NC2=Nn3c(c4cnn(-c5ccccc5)c4n/c3=N\N)NN2C(c2ccccc2)=C1
3. COC(=O)c1nc(-c2ccccc2)oc1S(=O)(=O)Cc1ccccc1
4. COC(=O)[C@@H](CCCCNC(=O)[C@]12CCC(C)(C)C[C@@H]1C1=CC[C@@H]3[C@@]4(C)C/C(=C/c5ccco5)C(=O)C(C)(C)[C@@H]4CC[C@@]3(C)[C@]1(C)CC2)NC(=O)[C@]12CCC(C)(C)C[C@@H]1C1=CC[C@@H]3[C@@]4(C)C/C(=C/c5ccco5)C(=O)C(C)(C)[C@@H]4CC[C@@]3(C)[C@]1(C)CC2
5. C#CCOC(=O)/C=C/c1cn(-c2ccccc2)nc1-c1ccc(OC)cc1
6. CCCCNC(=O)Oc1ccc(/C(=C(/C)Cc2ccc(OC)cc2)c2ccc(OCCN3CCCC3)cc2)cc1
7. Cc1cc(C(=O)O)c(C)n1-c1cccc(C(=O)O)c1

Response:
1: 75.7; 2: 87.9; 3: -78.7; 4: 102; 5: 107; 6: 58.8; 7: 113

====

- Test system: HT29 colon
- assay_info: NCI-60 one-dose screen, 48 h (100 = growth as untreated, 0 = no growth, -100 = all killed)
- measurement_parameters: 10 µM unless noted
The panel holds about 83,000 compounds, 20% with a hit somewhere; the sample as a whole holds those more often.
Field: growth. Provide a value for each of the compounds that follow.
Numbers only, in %.

Fill in growth for each of the 3 compounds listed.
1. Fc1cccc(Oc2ccc(Nc3ncnc4ccc(OCCCN5CCOCC5)cc34)cc2Cl)c1
2. COc1ccccc1NC(=O)N=Nc1c(O)[nH]c2ccccc12
3. Fc1cnccc1C1CC(c2ccc(N3CCNCC3)cc2)=NN1 (stereo not given)

Response:
1. 18.2
2. 105
3. 60.2

Fill in growth for each of the 2 compounds listed.
1. Fc1cc2c(cc1Cl)N(c1ncnc3ccc(-c4ccc5n[nH]nc5c4)cc13)CC2
2. COC12C=C/C(=C(/C(=O)OCc3ccncn3)C(=O)CCCCCCCCC3(OC)C=C/C(=C(/C(=O)OCc4ccncn4)C(=O)CCCCCCCC1)O3)O2

Response:
[95, 12.5]

====

- System: NCI-H23 lung
- assay_info: NCI-60 one-dose screen, 48 h (100 = growth as untreated, 0 = no growth, -100 = all killed)
- measurement_parameters: 10 µM unless noted
This is part of a sample that, as a whole, favours compounds with a hit. Of some 83,000 tested, about 20% had one in any assay.
outcome_measure: growth (%)
Numbers only, in %.

Consider the worked cases shown below.
compound	growth / %
O=C(c1nn(-c2ccccc2)c2c1CC(NCc1ccc(F)cc1)CC2)N1CCCCC1 (stereo not given)	95.3
O=C(CSc1oc(-c2ccccc2)nc1S(=O)(=O)c1ccccc1)Nc1ccc(F)cc1	78.6
CCOC(=O)c1csc(NC(=O)COc2ccc(/C=C3\Oc4ccccc4C3=O)cc2)n1	86.5
O=C(NNC(=O)c1ccc(NC(=O)c2ccccn2)cc1)Nc1ccc([N+](=O)[O-])cc1	106
CCOC(=O)c1cc2c(n1Cc1cc(OC)c(OC)c(OC)c1)-c1nc(N)sc1CCC2	62.9

Fill in growth for each of the 5 compounds listed.
1. COc1ccc(/C=N/C2=C(C#N)C(c3ccccc3)c3ccc4ccccc4c3O2)cc1 (stereo not given)
2. CNC(=O)c1ccccc1Oc1nc(Nc2cc(OC)c(OC)c(OC)c2)ncc1Br
3. O=C1/C(=C/c2ccc([N+](=O)[O-])cc2)COc2ccc(O)cc21
4. COc1ccc(C(=O)N2c3ccccc3Sc3ccccc32)c(OC)c1
5. COC(CC(F)F)c1cn(S(=O)(=O)c2ccc(C)cc2)c2ccccc12 (stereo not given)

Response:
[29.9, 55.2, 96.6, 38, 52]
